// data source = ChEMBL document CHEMBL1201862

Tested on: M19-MEL
ASSAY_NOTES: NCI tumour cell line growth inhibition, 48 h
Structures can show the parent of a compound that is named as a salt. Calls of active or inactive are those of the source. Cut-off read from the data, not from the text of the source: active = GI50 up to about 1.1 µM and inactive = higher.
PROPERTY: GI50

Check out these entries, answers already filled in.
COMPOUND: NC1(C(=O)O)CCc2ccc(N(CCCl)CCCl)cc2C1 (centres undefined)
TARGET_DESC: M19-MEL
REPORTED: 85.5 µM (inactive)

COMPOUND: COc1ccc2cc3[n+](cc2c1OC)CCc1cc2c(cc1-3)OCO2 [BERBERINE SULFATE]
TARGET_DESC: M19-MEL
REPORTED: 7.6 µM (inactive)

COMPOUND: Cc1cc(/C=C/c2cc[n+](C)c3ccccc23)c(O)c2ncccc12
TARGET_DESC: M19-MEL
REPORTED: 1.42 µM (inactive)

Consider the compound COc1ccc(CCc2cc(OC)cc(OC)c2)cc1 and give its recorded GI50.
25.3 µM (inactive)

---

Tested on: UACC-62
ASSAY_NOTES: NCI tumour cell line growth inhibition, 48 h
Activity calls are given as the source filed them. No stated cut-off is given here; in the data, active = GI50 up to about 1.1 µM and inactive = higher. Residues, ends and D or L forms follow the SMILES beside them. *: point of attachment. Boc = CC(C)(C)OC(=O)*; OBn = c1ccc(CO*)cc1
PROPERTY: GI50

MOLECULE: CC(C)C(NC(=O)C(Cc1ccccc1)NC(=O)OC(C)(C)C)C(=O)NCC(=O)OCc1ccccc1 (stereo not drawn) (Boc-Phe-Val-Gly-OBn; configuration not given here)
PROPERTY: GI50
REPORTED: 16.9 µM (inactive)
//
MOLECULE: O=C(/C=C\c1ccsc1)c1ccccc1
PROPERTY: GI50
REPORTED: 12.2 µM (inactive)
//
MOLECULE: COc1cc2c(cc1OC)C(Cl)C(c1cc(OC)c(OC)c(OC)c1)=C2Cl (stereo not given)
PROPERTY: GI50
REPORTED: 13.6 µM (inactive)
//
MOLECULE: C=C(Br)C[N+]12CN3CN(CN(C3)C1)C2
PROPERTY: GI50
REPORTED: > 100 µM (inactive)

Then there is this molecule:
Consider the molecule CCOC1=C2N=C(Cc3ccc(F)cc3)NC2C(=O)c2ccccc21 (stereo not given) and give its recorded GI50.
22.1 µM (inactive)

---

Parameter GI50: see the listing below.
System: BT-549
ASSAY_NOTES: NCI tumour cell line growth inhibition, 48 h
Active and inactive are the calls of the source. Cut-off read from the data, not from the text of the source: active = GI50 up to about 1.1 µM and inactive = higher. Residues, ends and D or L forms follow the SMILES beside them. Groups on a side chain read outwards from the residue. *: point of attachment. Cbz = O=C(OCc1ccccc1)*; Boc = CC(C)(C)OC(=O)*

Check out these entries, answers already filled in.
COMPOUND: NS(=O)(=O)c1ccc(N=C2C(=O)Nc3ccccc32)cc1
GI50: > 100 µM (inactive)
//
COMPOUND: Clc1ccc2c(c1)CC1C[N+]3=C(CCCCC3)C1=C2 (stereo not drawn)
GI50: 26.5 µM (inactive)
//
COMPOUND: O=C(/C=C\c1ccsc1)c1ccccc1
GI50: 12.6 µM (inactive)
//
COMPOUND: Cc1cc(C)c([S@@](=O)O[C@@H]2[C@H]3OC(C)(C)O[C@H]3O[C@@H]2[C@H]2COC(C)(C)O2)c(C)c1
GI50: 15.1 µM (inactive)
//
COMPOUND: CC(C)CC(NC(=O)OCc1ccccc1)C(=O)NCCCCC(NC(=O)C(CCCCNC(=O)C(CC(C)C)NC(=O)OCc1ccccc1)NC(=O)C(CCCCNC(=O)C(CC(C)C)NC(=O)OCc1ccccc1)NC(=O)C(CCCCNC(=O)C(CC(C)C)NC(=O)OCc1ccccc1)NC(=O)OC(C)(C)C)C(=O)O (stereo not drawn) (Boc-K([Leu-Cbz])K([Leu-Cbz])K([Leu-Cbz])K([Leu-Cbz])-OH; configuration not given here)
GI50: > 25 µM (inactive)

Consider the compound Cn1c2ccccc2n2c3ncccc3c(=O)c(C#N)c12 and give its recorded GI50.
16.5 µM (inactive)

Consider the compound CC(C)C1CC(CO)(CNc2nc(N)nc(Cl)c2/C=N\O)C1 (stereo not drawn) and give its recorded GI50.
11.7 µM (inactive)

Consider the compound Cc1sc(NC=C2C(=O)CC(C)(C)CC2=O)nc1-c1ccccc1 and give its recorded GI50.
> 100 µM (inactive)

---

Test system: M14
ASSAY_NOTES: NCI tumour cell line growth inhibition, 48 h
Calls of active or inactive are those of the source. Rule as the data show it: active = GI50 up to about 1.1 µM and inactive = higher.
PROPERTY: GI50

Check out these entries, answers already filled in.
MOLECULE: CC(C)(C)c1cc(-c2ccc(-c3cc(C(C)(C)C)c(O)c(C(C)(C)C)c3)cc2)cc(C(C)(C)C)c1O
GI50: > 100 µM (inactive)

MOLECULE: N#CC(=N)c1ncn(-c2ccccc2N)c1N
GI50: > 100 µM (inactive)

MOLECULE: CCOc1ccc2c(c1)NC(=O)C(C1OC(c3ccccc3)=CC1=O)S2 (stereo not given)
GI50: 48.2 µM (inactive)

MOLECULE: OC1COC(n2c3ccc(Br)cc3c3ccc4c5ccccc5[nH]c4c32)C(O)C1O (stereo not given)
GI50: 3.12 µM (inactive)

Consider the molecule CCCCCCCC(CC(=O)NC(CO)C(=O)NC(CO)CC(C)C)OC(=O)CC(CCCCCCC)OC(=O)CC(CCCCCCC)OC1OC(C)C(O)C(OC2OC(C)C(O)C(O)C2OC(C)=O)C1O (stereo not given) and give its recorded GI50.
5.69 µM (inactive)

Consider the molecule Cc1cc(-c2ccccc2)cc2[n+]1CC=C2.[O-][Cl+3]([O-])([O-])[O-] and give its recorded GI50.
> 100 µM (inactive)

Consider the molecule Cc1ccc(NC(c2ccccc2)P(=O)(c2ccccc2)c2ccccc2)cc1 (stereo not given) and give its recorded GI50.
> 100 µM (inactive)

---

Tested on: OVCAR-3
ASSAY_NOTES: NCI tumour cell line growth inhibition, 48 h
Active and inactive are the calls of the source. Cut-off read from the data, not from the text of the source: active = GI50 up to about 1.1 µM and inactive = higher.
Tick one outcome: yes (active), no (inactive)

MOLECULE: CCOc1ccc2c(c1)C(/C(C(Cl)=C(Cl)Cl)=[N+](/[O-])OC(=O)c1ccccc1)=N2
TARGET_DESC: OVCAR-3
ASSIGNED_CLASS: no

MOLECULE: O=C1CSC(c2ccccc2O)N1c1ccc(Oc2ccc(Cl)cc2)c(Cl)c1 (centres undefined)
TARGET_DESC: OVCAR-3
ASSIGNED_CLASS: no

MOLECULE: CCCCCN(CCCCC)C(=O)[C@H](CCC(=O)O)NC(=O)c1cc2ccccc2[nH]1
TARGET_DESC: OVCAR-3
ASSIGNED_CLASS: no

Consider the record given below.
Write down the call the test reported for this molecule. Item: C=C(C)[C@H]1Cc2c(ccc3c2O[C@@H]2COc4cc(OC)c(OC)cc4[C@@H]2C3=O)O1
yes

---

Parameter GI50: see the listing below.
Tested on: UO-31
ASSAY_NOTES: NCI tumour cell line growth inhibition, 48 h
Calls of active or inactive are those of the source. No stated cut-off is given here; in the data, active = GI50 up to about 1.1 µM and inactive = higher.

Check out these entries, answers already filled in.
MOLECULE: O=c1c2c(-c3ccccc3)onc2n(-c2ccccc2)c(=O)n1-c1ccccc1
GI50: 14.9 µM (inactive)
//
MOLECULE: CCOc1ccc(/N=C/c2c3ccccc3nc3ccccc23)cc1
GI50: 98.6 µM (inactive)
//
MOLECULE: CN(C)CCC(=O)/C=C\c1ccccc1
GI50: 17.6 µM (inactive)

Consider the molecule Cn1c(COC(=O)Nc2ccccc2)c(COC(=O)Nc2ccccc2)c2ccc3cc(Cl)c(Cl)cc3c21 and give its recorded GI50.
10.4 µM (inactive)

Consider the molecule Cc1noc(C)c1/N=N/c1ccc2nonc2c1N and give its recorded GI50.
21 µM (inactive)

Consider the molecule COc1ccc(C2=Nc3c(nc(OC)[nH]c3=O)NC(c3ccccc3)C2)cc1 (stereo unspecified) and give its recorded GI50.
46.2 µM (inactive)

---

Tested on: UACC-257
ASSAY_NOTES: NCI tumour cell line growth inhibition, 48 h
Calls of active or inactive are those of the source. No stated cut-off is given here; in the data, active = GI50 up to about 1.1 µM and inactive = higher.
Tick one outcome: active, inactive

Answered examples (5):
COMPOUND: CCOC(=O)c1c(-c2cccc3ccccc23)c(C#N)c(=S)n(C2OC(COC(C)=O)C(OC(C)=O)C(OC(C)=O)C2OC(C)=O)c1C (stereo not drawn)
ASSIGNED_CLASS: inactive
--
COMPOUND: CO[C@@H]1O[C@H](C(=O)c2ccccc2)[C@H]2OC(C)(C)O[C@@H]12
ASSIGNED_CLASS: inactive
--
COMPOUND: C#CC(O)/C=C/CCCCCCC#CC/C=C\CC#CCCCCCC/C=C/C(O)C#C (stereo not drawn)
ASSIGNED_CLASS: inactive
--
COMPOUND: COc1cc2c3c(c4ccc(OC)c(OC)c4c2cc1OC)CN1CCC[C@@H]1C3 [TYLOCREBRINE]
ASSIGNED_CLASS: active
--
COMPOUND: COc1ccc(NC(=O)/C(Cc2nc3ccccc3nc2O)=N\O)c(OC)c1
ASSIGNED_CLASS: inactive

Consider the record given below.
Write down the call the test reported for this compound. Item: Cn1c(COC(=O)Nc2ccccc2)c(COC(=O)Nc2ccccc2)c2ccc3cc(Cl)c(Cl)cc3c21
inactive
